Kindly state inhibition at 1 µM for each of the entries shown.
Target: Cloned Human Serotonin Receptor, Subtype 7 (h5HT7), expressed in CHO cells (Homo sapiens, UniProt P34969)
Construct: purchased PerkinElmer 6120512; host or cells: CHO cells
Sequence (P34969 whole entry): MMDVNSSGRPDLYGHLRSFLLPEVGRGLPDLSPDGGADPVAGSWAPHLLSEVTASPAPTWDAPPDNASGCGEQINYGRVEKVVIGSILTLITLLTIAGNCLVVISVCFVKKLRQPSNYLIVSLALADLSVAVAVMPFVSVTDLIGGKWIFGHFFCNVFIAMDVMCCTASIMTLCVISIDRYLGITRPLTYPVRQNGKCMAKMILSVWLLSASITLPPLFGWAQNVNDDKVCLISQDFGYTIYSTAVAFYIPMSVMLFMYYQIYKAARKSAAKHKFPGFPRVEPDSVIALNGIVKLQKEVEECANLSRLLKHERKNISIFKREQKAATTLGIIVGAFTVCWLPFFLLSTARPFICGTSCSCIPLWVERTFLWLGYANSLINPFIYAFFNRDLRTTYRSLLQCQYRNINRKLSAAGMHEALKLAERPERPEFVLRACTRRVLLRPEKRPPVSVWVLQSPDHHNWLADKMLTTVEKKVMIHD
Assay: Radioligand binding assay, [125I]LSD, cloned human 5HT7 receptor on Flashplate
Details: compound at 10^−6 M; radioligand [125I]LSD 0.82 nM; read-out: %-Inhib. (10^−6 M)
Answer format: numeric, % implied, no suffix.

Challenge: # lookup: inhibition at 1 µM of Fc1cc2c(c(CN3CCN(C4CCc5ccccc5C4)CC3)c1)OCOC2 (stereo not shown)
Response given: 49

Challenge: # lookup: inhibition at 1 µM of "Cn1cc(CN2CCN(c3cccc(C(F)(F)F)c3)CC2)c(=O)n(C)c1=O"
Response given: 28.5

Challenge: # lookup: inhibition at 1 µM of "O=[N+]([O-])c1ccc(N2CCN(Cc3cccnc3Nc3ccccc3)CC2)cc1"
Response given: -4.6

Challenge: # lookup: inhibition at 1 µM of "COc1ccc(C(C)C)cc1CN1CCN(c2ccc(Cl)cc2)CC1"
Response given: 35.9

Challenge: # lookup: inhibition at 1 µM of "O=[N+]([O-])c1cccc(CN2CCN(c3cccc4[nH]ccc34)CC2)c1"
Response given: 41.5

Challenge: # lookup: inhibition at 1 µM of "Cc1ccc(N2CCN(Cc3ccc(Cl)nc3)CC2)c(C)c1"
Response given: 16.6

Challenge: # lookup: inhibition at 1 µM of "c1ccc2[nH]c(CN3CCN(c4cccc5[nH]ccc45)CC3)nc2c1"
Response given: 28.8

====

Target: Cloned Human Serotonin Receptor, Subtype 7 (h5HT7), expressed in CHO cells (Homo sapiens)
Construct: purchased PerkinElmer 6120512; host or cells: CHO cells
Test: Radioligand binding assay, [125I]LSD, cloned human 5HT7 receptor on Flashplate
Conditions: compound at 10^−6 M; radioligand [125I]LSD 0.82 nM; read-out: %-Inhib. (10^−6 M)
# inhibition at 1 µM >= 50% gives true (1), anything below gives false (0)

Challenge: Is it the case that c1ccc(OCCN2CCN(c3cccc4[nH]ccc34)CC2)cc1 [Ex 3] has inhibition at 1 µM reaching or exceeding 50%?
Response given: true (1)

Challenge: Is it the case that CC[C@H](C)C(=O)N1CCN(Cc2cc(C(C)C)ccc2OC)CC1 [Ex 6] has inhibition at 1 µM reaching or exceeding 50%?
Response given: false (0)

Challenge: Is it the case that COc1ccc(C(C)C)cc1CN1CCN(c2ccc(C)cc2C)CC1 [Ex 24] has inhibition at 1 µM reaching or exceeding 50%?
Response given: false (0)

Challenge: Is it the case that COc1ccc(CN2CCN(c3ccc(C)cc3C)CC2)c(OC)n1 [Ex 16] has inhibition at 1 µM reaching or exceeding 50%?
Response given: false (0)

Challenge: Is it the case that COc1ccc(CN2CCN(c3cccc(C(F)(F)F)c3)CC2)c(OC)n1 [Ex 21] has inhibition at 1 µM reaching or exceeding 50%?
Response given: false (0)

Challenge: Is it the case that COc1ccc(CN2CCN(c3ccc(OC)c(OC)c3)CC2)c(OC)n1 [Ex 12] has inhibition at 1 µM reaching or exceeding 50%?
Response given: false (0)

Challenge: Is it the case that FC(F)(F)c1cccc(N2CCN(Cc3cccnc3Nc3ccccc3)CC2)c1 [Ex 14] has inhibition at 1 µM reaching or exceeding 50%?
Response given: false (0)

Challenge: Is it the case that c1cc(N2CCN(Cc3ccc(OC4CCCCO4)cc3)CC2)c2cc[nH]c2c1 (stereo not shown) [Ex 19] has inhibition at 1 µM reaching or exceeding 50%?
Response given: true (1)

Challenge: Is it the case that COc1ccc(C(C)C)cc1CN1CCN(C(=O)c2ccc(Br)cc2)CC1 [Ex 9] has inhibition at 1 µM reaching or exceeding 50%?
Response given: true (1)
